biological target: HSL (Homo sapiens, UniProt Q05469); test: TEST 3180.2 HSL: percent inhibition at 10 μM, 3H-Triolein lipid emulsion; format: biochemical; settings: 10 μM concentration; percent activity relative to an un-inhibited sample; 30 min preincubation, 30 min reaction at 25° C.; read-out: TEST 3180.2 HSL Activity (%)
Sequence (Q05469 whole entry, species assumed): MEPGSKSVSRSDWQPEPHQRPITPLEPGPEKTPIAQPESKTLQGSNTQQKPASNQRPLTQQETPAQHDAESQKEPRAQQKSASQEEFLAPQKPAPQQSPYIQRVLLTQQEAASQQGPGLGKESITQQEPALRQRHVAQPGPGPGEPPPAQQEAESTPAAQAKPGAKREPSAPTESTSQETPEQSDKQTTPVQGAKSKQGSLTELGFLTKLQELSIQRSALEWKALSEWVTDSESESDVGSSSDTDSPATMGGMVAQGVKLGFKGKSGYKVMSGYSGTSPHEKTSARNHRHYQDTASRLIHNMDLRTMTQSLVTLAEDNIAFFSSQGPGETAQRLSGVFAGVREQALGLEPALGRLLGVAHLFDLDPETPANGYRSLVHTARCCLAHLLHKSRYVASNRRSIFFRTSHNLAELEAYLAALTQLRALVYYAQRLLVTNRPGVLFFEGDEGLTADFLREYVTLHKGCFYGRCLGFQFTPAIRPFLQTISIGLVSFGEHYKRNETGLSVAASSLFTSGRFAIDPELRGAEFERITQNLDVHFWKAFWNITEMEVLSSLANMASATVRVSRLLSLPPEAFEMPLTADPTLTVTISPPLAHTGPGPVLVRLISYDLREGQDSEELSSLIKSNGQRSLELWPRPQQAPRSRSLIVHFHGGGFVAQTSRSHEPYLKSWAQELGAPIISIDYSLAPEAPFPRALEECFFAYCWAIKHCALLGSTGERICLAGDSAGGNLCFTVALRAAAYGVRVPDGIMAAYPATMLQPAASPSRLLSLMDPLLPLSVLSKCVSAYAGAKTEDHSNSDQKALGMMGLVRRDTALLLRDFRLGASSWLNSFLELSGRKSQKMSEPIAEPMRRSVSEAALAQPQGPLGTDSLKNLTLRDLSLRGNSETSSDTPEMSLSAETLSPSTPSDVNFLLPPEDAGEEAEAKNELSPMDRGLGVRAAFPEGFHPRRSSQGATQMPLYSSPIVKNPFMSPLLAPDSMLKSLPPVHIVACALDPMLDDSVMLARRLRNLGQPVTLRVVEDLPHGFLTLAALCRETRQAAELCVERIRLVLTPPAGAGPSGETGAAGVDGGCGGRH
Think of 60% as a floor: if activity at 10 µM stands on it or above, it is class 1; beneath it, class 0.

These solved cases illustrate the format of a correct answer.
CC1(C)COB(c2ccccc2Cl)OC1 : class 1
Ic1cccc(OCC2COB(c3ccccc3)O2)c1 (centres unmarked) : class 1
OB(O)c1cc(Cl)ccc1Cl : class 0
COc1ccc(Cl)cc1B(O)O : class 0

Kindly review the next compound as well.
q: Could you please find out whether `CCCCCC1COB(c2ccc(C(=O)O)c(F)c2)OC1` has activity at 10 µM that meets 60% or exceeds it?
a: class 1

---

target: hormone sensitive lipase (Homo sapiens, UniProt Q05469); test: TEST 3190.1 HSL-FL: percent inhibition of hormone sensitive lipase at 10 μM, fluorochrome-labeled triacylglyceride emulsion; format: biochemical; conditions: 10 μM sample concentration; percent activity relative to a non-inhibited sample; 30 min preincubation 25° C., 120 min at 37° C.
Sequence (Q05469 whole entry, species assumed): as above
Each item that follows carries a reported activity at 10 µM.
Field: numeric (%). Do not append units.

A selection of reference data follows.
CC1(C)COB(c2cccc(Cl)c2)OC1 : 39
COc1ccc(Cl)cc1B1OCCNCCO1 : 39
Fc1ccc(B2OCCNCCO2)cc1Cl : 39

q: Could you share what activity at 10 µM was measured for `CC1(C)OB(c2cccc(Cl)c2)OC1(C)C` , tested on hormone sensitive lipase (Homo sapiens, UniProt Q05469)?
a: 40

q: Requested read-out activity at 10 µM, target or system hormone sensitive lipase (Homo sapiens, UniProt Q05469), entry `CC1(C)OB(c2ccc(F)c(Cl)c2)OC1(C)C`
a: 36

q: Param readout= activity at 10 µM; system= hormone sensitive lipase (Homo sapiens, UniProt Q05469); entry= `Clc1ccc(B2OCCNCCO2)s1` ; returns value.
a: 19

q: Give hormone sensitive lipase (Homo sapiens, UniProt Q05469) activity at 10 µM for `Cc1csc(B2OCC(C)(C)CO2)c1`
a: 58

q: So what activity at 10 µM did `Clc1cc(Cl)cc(B2OCCNCCO2)c1` get with hormone sensitive lipase (Homo sapiens, UniProt Q05469)?
a: 40

The values you see were collected from patent US7037905B2.
